- targetSystem: D(1A) dopamine receptor (Homo sapiens)
- protocolSummary: HTS Assay for Allosteric Agonists of the Human D1 Dopamine Receptor: Primary Screen for Potentiators (AID 488982)
- settings: HEK293 T-REx D1 inducible cells, calcium flux, kinetic fluorescence; series mostly up to 8.37 µM
Results filed as inconclusive are left out. Active and inactive are the calls of the source. The call rests on the fitted dose curve; in most records, active means well fitted activation curve with a large enough effect; inconclusive means small, poorly fitted or top-dose-only effect; inactive means no such curve, though single readings can be large or run the other way.
API: response.call in T = active, F = inactive

Asked: Name the outcome recorded for "COC(=O)C1=CCCN(C)C1" in the assay.
Given back: F

Asked: Then what about the molecule "COC(=O)C1=C(C)NC(C)=C(C(=O)OC)C1c1ccccc1[N+](=O)[O-]" ?
Given back: T

Asked: Then what about the molecule "CN1C[C@H](C(=O)N[C@]2(C)O[C@@]3(O)[C@@H]4CCCN4C(=O)[C@H](Cc4ccccc4)N3C2=O)C[C@@H]2c3cccc4[nH]cc(c34)C[C@H]21" ?
Given back: F

Asked: Then what about the molecule "NC(N)=N/N=C/c1c(Cl)cccc1Cl" ?
Given back: F

Asked: Then what about the molecule "O=C(O)c1nn(Cc2ccc(Cl)cc2Cl)c2ccccc12" ?
Given back: F

Asked: Then what about the molecule "COc1ccc(C(=O)N2CCCC2=O)cc1" ?
Given back: F

----------
- settings: Ebola virus entry assay, blue channel fluorescence
Calls of active or inactive are those of the source.
API: response.call in yes for active, no for inactive

Asked: Name the outcome recorded for CN(C)CCOC(c1ccccc1)c1ccc(Br)cc1 (stereo not drawn) in the assay.
Given back: yes

Asked: Then what about the compound "Cc1ccc(N=CN(C)C=Nc2ccc(C)cc2C)c(C)c1" ?
Given back: no

Asked: Then what about the compound "COP(=S)(OC)Oc1ccc(Sc2ccc(OP(=S)(OC)OC)cc2)cc1" ?
Given back: no

Asked: Then what about the compound "c1ccc2c(c1)CCc1ccccc1N2" ?
Given back: yes

Asked: Then what about the compound "NC(=O)CC[C@@H](N)C(=O)O" ?
Given back: no

Asked: Then what about the compound CCCCCC1Nc2cc(C(F)(F)F)c(S(N)(=O)=O)cc2S(=O)(=O)N1 (stereo not drawn) ?
Given back: no

Asked: Then what about the compound CCCCCCCCCCCCCCCCCCOCC(O)CO (stereo not drawn) ?
Given back: no

Asked: Then what about the compound "CCOC(=O)N1CCC(n2c(=O)[nH]c3cc(Cl)ccc32)CC1" ?
Given back: no

Asked: Then what about the compound "Cc1ccc(=O)n(-c2ccccc2)c1" ?
Given back: no

Asked: Then what about the compound "Cc1nnc(C(=O)NC(C)(C)c2nc(C(=O)NCc3ccc(F)cc3)c(O)c(=O)n2C)o1" ?
Given back: no

Asked: Then what about the compound C=CCc1ccccc1OCC(O)CNC(C)C (stereo not drawn) ?
Given back: yes

Asked: Then what about the compound "O=C(CCCCl)c1ccc(F)cc1" ?
Given back: no

Asked: Then what about the compound CCCCCCCCNC(C)C(O)c1ccc(SC(C)C)cc1 (stereo not drawn) ?
Given back: yes

----------
- Test system: AA1029
- protocolSummary: qHTS profiling for inhibitors of Plasmodium falciparum proliferation (AID 504749); further: nearly all actives have a fitted effect of over 60% in size
- settings: P. falciparum in erythrocytes, SYBR Green DNA, 72 h; series mostly up to 28.7 µM
Records with an inconclusive call do not appear. The source made the active and inactive calls. Calls follow the shape of the dose curve; as a rule, active = well fitted inhibition curve with a large enough effect; inconclusive = small, poorly fitted or top-dose-only effect; inactive = flat fitted curve, though single readings scatter.
API: response.call in active, inactive

Asked: Name the outcome recorded for "COC(=O)C1=CCCN(C)C1" in the assay.
Given back: inactive

Asked: Then what about the molecule "COP(=S)(OC)Oc1ccc(Sc2ccc(OP(=S)(OC)OC)cc2)cc1" ?
Given back: inactive

Asked: Then what about the molecule "CC(C)(O)C(Cl)(Cl)Cl" ?
Given back: active

Asked: Then what about the molecule "c1cc2c(c(N3CCNCC3)c1)OCCO2" ?
Given back: inactive

Asked: Then what about the molecule "CCN(CC)CCOC(=O)C(C)(c1ccccc1)c1ccccc1" ?
Given back: active

Asked: Then what about the molecule "Cc1ccc(N=CN(C)C=Nc2ccc(C)cc2C)c(C)c1" ?
Given back: inactive

Asked: Then what about the molecule "Cc1c(Cl)c(=O)oc2cc(OP(=O)(OCCCl)OCCCl)ccc12" ?
Given back: active

Asked: Then what about the molecule "CN1C(=O)CN=C(c2ccccc2)c2cc([N+](=O)[O-])ccc21" ?
Given back: inactive

Asked: Then what about the molecule "CN(C)C(=S)SSC(=S)N(C)C" ?
Given back: active

Asked: Then what about the molecule "c1ccc2nc(N3CCNCC3)ccc2c1" ?
Given back: inactive

----------
- Test system: CP217
- protocolSummary: qHTS profiling for inhibitors of Plasmodium falciparum proliferation (AID 504749); further: nearly all actives have a fitted effect of over 60% in size
- settings: P. falciparum in erythrocytes, SYBR Green DNA, 72 h; series mostly up to 28.7 µM
Results filed as inconclusive are left out. Active and inactive are the calls of the source. Calls come from the whole dose curve; as a rule, active = well fitted inhibition curve with a large enough effect; inconclusive = small, poorly fitted or top-dose-only effect; inactive = flat fitted curve, though single readings scatter.
measuredMetric: outcome

{"columns": ["smilesRepr", "result"],
 "data": [
  ["C[N+]1(CCC(C(N)=O)(c2ccccc2)c2ccccc2)CCCCC1", "inactive"],
  ["C[C@]12CC[C@H]3[C@@H](CC=C4C[C@@H](O)CC[C@@]43C)[C@@H]1CC[C@@H]2O", "inactive"],
  ["CC(C)[N+](C)(CCC(C(N)=O)(c1ccccc1)c1ccccc1)C(C)C", "inactive"]
]}

----------
- targetSystem: Protein phosphatase 1D (Homo sapiens) (UniProt O15297)
- Sequence (O15297 whole entry, looked up): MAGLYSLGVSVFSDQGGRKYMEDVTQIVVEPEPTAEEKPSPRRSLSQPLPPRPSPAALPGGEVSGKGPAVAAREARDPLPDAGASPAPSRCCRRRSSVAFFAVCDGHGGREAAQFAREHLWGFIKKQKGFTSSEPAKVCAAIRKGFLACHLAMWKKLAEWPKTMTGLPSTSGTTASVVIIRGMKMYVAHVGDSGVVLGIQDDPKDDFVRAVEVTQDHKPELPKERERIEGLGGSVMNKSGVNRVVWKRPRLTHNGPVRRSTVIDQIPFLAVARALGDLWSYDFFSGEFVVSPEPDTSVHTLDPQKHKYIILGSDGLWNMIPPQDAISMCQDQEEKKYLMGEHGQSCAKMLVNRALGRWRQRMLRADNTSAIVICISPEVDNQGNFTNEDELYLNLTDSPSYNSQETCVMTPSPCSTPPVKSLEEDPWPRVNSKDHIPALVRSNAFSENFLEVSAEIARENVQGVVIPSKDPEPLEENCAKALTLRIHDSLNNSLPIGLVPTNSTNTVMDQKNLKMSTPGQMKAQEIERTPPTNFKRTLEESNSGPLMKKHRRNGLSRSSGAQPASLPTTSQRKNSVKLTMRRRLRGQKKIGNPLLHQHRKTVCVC
- protocolSummary: Rhodamine-PBP qHTS Assay for Modulators of WT P53-Induced Phosphatase 1 (WIP1) (AID 1347425)
- settings: recombinant WIP1, Rhodamine-PBP phosphate fluorescence, real-time; series mostly up to 57.5 µM
Records with an inconclusive call do not appear. The source made the active and inactive calls. Calls come from the whole dose curve; as a rule, active = well fitted curve in the direction sought with a large enough effect; inconclusive = small, poorly fitted or top-dose-only effect, or another doubt; inactive = no such curve, though single readings can be large or run the other way.
measuredMetric: outcome

Solved entries (count: 6):
{"columns": ["compound", "result"],
 "data": [
  ["C[C@]12Cc3nonc3C[C@@H]1CC[C@@H]1[C@@H]2CC[C@@]2(C)[C@H]1CC[C@]2(C)O", "inactive"],
  ["CN1C[C@@H](NS(=O)(=O)N(C)C)C[C@@H]2c3cccc4c3c(cn4C)C[C@H]21", "inactive"],
  ["Cc1ncc2n1-c1ccc(Cl)cc1C(c1ccccc1F)=NC2", "inactive"],
  ["CCN(CC)Cc1nccn1-c1ccc([N+](=O)[O-])cc1C(=O)c1ccccc1Cl", "inactive"],
  ["CC(=O)OC1(c2ccccc2)CCN(CCc2ccccc2)CC1", "inactive"],
  ["CCNc1nc(Cl)nc(NCC)n1", "inactive"]
]}

Asked: What outcome value was documented for this compound, CCOC(=O)c1cncn1C(C)c1ccccc1 (stereo not given) ?
Given back: inactive

Asked: Then what about the compound CC1COC2(c3ccccc3Cl)c3cc(Cl)ccc3NC(=O)CN12 (stereo not given) ?
Given back: inactive

Asked: Then what about the compound "CC[C@]1(O)CC[C@H]2[C@@H]3CCC4=CCCC[C@@H]4[C@H]3CC[C@@]21C" ?
Given back: inactive

Asked: Then what about the compound "CC1=C2[C@H]3OC(=O)[C@@H](C)[C@@H]3CC[C@@]2(C)C=CC1=O" ?
Given back: inactive

----------
- protocolSummary: Cellular Toxicity (caspase-3) Jurkat (AID 655);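 further: cells exposed to compound for 16 h at 37 °C before reading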
- settings: Jurkat caspase-3 activation, luminescence; series mostly up to 92.2 µM
Records with an inconclusive call do not appear. Activity calls are given as the source filed them. The call rests on the fitted dose curve; in most records, active means well fitted activation curve with a large enough effect; inconclusive means small, poorly fitted or top-dose-only effect; inactive means flat fitted curve, though single readings scatter.
API: response.call in active, inactive

Asked: Name the outcome recorded for "CC[n+]1c(-c2ccccc2)c2cc(N)ccc2c2ccc(N)cc21" in the assay.
Given back: inactive

Asked: Then what about the molecule "O=C(CCl)c1ccc(Cl)cc1Cl" ?
Given back: active

Asked: Then what about the molecule "CN(C)C(=S)SSC(=S)N(C)C" ?
Given back: active

Asked: Then what about the molecule "CNC(=O)Oc1cccc2ccccc12" ?
Given back: inactive

----------
- Tested on: CAOV3
- protocolSummary: Primary qHTS to identify gynecologic anti-cancer compounds using libraries of approved drugs and bioactive compounds (AID 1345084); further: nearly all actives have a fitted effect of over 55% in size
- settings: Gynecologic cancer cell panel viability, ATPlite luminescence, 48 h; series mostly up to 57.5 µM
Inconclusive results are not listed. Calls of active or inactive are those of the source. Calls follow the shape of the dose curve; as a rule, active = well fitted cell-killing curve with a large enough effect; inconclusive = small, poorly fitted or top-dose-only effect, or effect the other way; inactive = flat fitted curve, though single readings scatter.
API: response.call in True (active), False (inactive)

Asked: Name the outcome recorded for "ClCCCN1CCN(c2cccc(Cl)c2)CC1" in the assay.
Given back: False

Asked: Then what about the compound "CCNc1nc(Cl)nc(NCC)n1" ?
Given back: False

Asked: Then what about the compound CC(C)C(Br)C(=O)NC(N)=O (configuration not stated) ?
Given back: False

Asked: Then what about the compound "Nc1ccc(Cl)cc1C(=O)c1ccccc1F" ?
Given back: False

Asked: Then what about the compound CC(Cc1ccccc1)NCc1ccccc1Cl (configuration not stated) ?
Given back: False

Asked: Then what about the compound "O=C(O)c1nn(Cc2ccc(Cl)cc2Cl)c2ccccc12" ?
Given back: False

Asked: Then what about the compound COc1cc(CC(C)N)c(OC)cc1Br (configuration not stated) ?
Given back: False

Asked: Then what about the compound "CCc1ccc(C2CCNCC2)cc1" ?
Given back: False

Asked: Then what about the compound "C[C@@H]1C[C@@H]([C@H](O)CC2CC(=O)NC(=O)C2)C(=O)[C@@H](C)C1" ?
Given back: True

Asked: Then what about the compound CN(C)C(=O)Oc1cc(OC(=O)N(C)C)cc(C(O)CNC(C)(C)C)c1 (configuration not stated) ?
Given back: False

Asked: Then what about the compound "NC1(c2ccccc2)CCCCC1" ?
Given back: False

Asked: Then what about the compound ClC1=C(Cl)C2(Cl)C(CBr)CC1(Cl)C2(Cl)Cl (configuration not stated) ?
Given back: False

Asked: Then what about the compound CCCC[N+]1(C)[C@@H]2CC(OC(=O)[C@H](CO)c3ccccc3)C[C@H]1[C@@H]1O[C@@H]12 (some centres not stated) ?
Given back: False

Asked: Then what about the compound COc1cc(N)c(Cl)cc1C(=O)NC1CN2CCC1CC2 (configuration not stated) ?
Given back: False

Asked: Then what about the compound "CCOC(=O)NC(C)(C)Cc1ccc(Cl)cc1" ?
Given back: False

Asked: Then what about the compound "CNC(=O)Oc1cccc2ccccc12" ?
Given back: False

Asked: Then what about the compound O=C(NC(=O)c1c(F)cccc1F)Nc1cc(Cl)c(OC(F)(F)C(F)C(F)(F)F)cc1Cl (configuration not stated) ?
Given back: False

Asked: Then what about the compound "Cc1nnc2n1-c1sc(CCC(=O)N3CCOCC3)cc1C(c1ccccc1Cl)=NC2" ?
Given back: False

Asked: Then what about the compound "CC[n+]1c(-c2ccccc2)c2cc(N)ccc2c2ccc(N)cc21" ?
Given back: True

Asked: Then what about the compound "C[C@@H]1CC[C@H]2[C@@H](C)C(=O)O[C@@H]3O[C@@]4(C)CC[C@@H]1[C@]32OO4" ?
Given back: False

Asked: Then what about the compound "Clc1ccc(CO/N=C(\Cn2ccnc2)c2ccc(Cl)cc2Cl)c(Cl)c1" ?
Given back: False

Asked: Then what about the compound "Oc1ccc([C@H]2CNCc3c2ccc(O)c3O)cc1O" ?
Given back: False

Asked: Then what about the compound CC(Cc1ccc2c(c1)OCO2)NO (configuration not stated) ?
Given back: False

Asked: Then what about the compound "COc1cc(C[C@@H](C)N)c(OC)cc1C" ?
Given back: False

Asked: Then what about the compound "CCO[C@H]1O[C@@H]2OC3(C)CC[C@H]4[C@H](C)CC[C@@H]([C@H]1C)[C@@]24OO3" ?
Given back: False

Asked: Then what about the compound "CCOC(=O)C1(c2ccccc2)CCN(CCc2ccc(N)cc2)CC1" ?
Given back: False

Asked: Then what about the compound "CC[C@H]1C[C@@H]2C[C@H]3c4[nH]c5ccc(OC)cc5c4CCN(C2)[C@@H]13" ?
Given back: False

Asked: Then what about the compound "Sc1ccccc1Cl" ?
Given back: False

Asked: Then what about the compound "C[C@]12CC[C@H](O)CC1=CC[C@@H]1[C@@H]2CC[C@]2(C)C(=O)CC[C@@H]12" ?
Given back: False

Asked: Then what about the compound CNC(C)Cc1ccc2c(c1)OCO2 (configuration not stated) ?
Given back: False

Asked: Then what about the compound "CCN(CC)Cc1nccn1-c1ccc([N+](=O)[O-])cc1C(=O)c1ccccc1Cl" ?
Given back: False

Asked: Then what about the compound CCCC(C)C1(CC)C(=O)N=C(S)NC1=O (configuration not stated) ?
Given back: False

Asked: Then what about the compound "O=C1NCN(c2ccccc2)C12CCN(CCCOc1ccc(F)cc1)CC2" ?
Given back: False

Asked: Then what about the compound "C[C@H](CN1CCOCC1)C(C(=O)N1CCCC1)(c1ccccc1)c1ccccc1" ?
Given back: False

Asked: Then what about the compound "Cc1ccc(N=CN(C)C=Nc2ccc(C)cc2C)c(C)c1" ?
Given back: False

Asked: Then what about the compound CC(C(O)c1ccccc1)N(C)C/C=C/c1ccccc1 (configuration not stated) ?
Given back: False

Asked: Then what about the compound "C=CCN1CC[C@]23CCCC[C@H]2[C@H]1Cc1ccc(O)cc13" ?
Given back: False

Asked: Then what about the compound "CC#C[C@]1(O)CC[C@H]2[C@@H]3C[C@H](C)C4=CC(=O)CC[C@]4(C)[C@H]3CC[C@@]21C" ?
Given back: False

Asked: Then what about the compound "C[N+]1(CCC(C(N)=O)(c2ccccc2)c2ccccc2)CCCCC1" ?
Given back: False

Asked: Then what about the compound "Cc1ccc([N+](=O)[O-])[c]2c1[O][Hg]2" ?
Given back: True

Asked: Then what about the compound "CCOC(C(=O)OCCN(C)C)(c1ccccc1)c1ccccc1" ?
Given back: False

Asked: Then what about the compound "CCOC(=O)C(c1c(O)c2ccccc2oc1=O)c1c(O)c2ccccc2oc1=O" ?
Given back: False

Asked: Then what about the compound "C#C[C@]1(O)CC[C@H]2[C@@H]3CCC4=CC(=O)CCC4=C3C=C[C@@]21CC" ?
Given back: False

Asked: Then what about the compound "CCOP(=S)(OCC)O/N=C(\C#N)c1ccccc1" ?
Given back: False

Asked: Then what about the compound C[C@@H]1CN(C2CCC(C#N)(c3ccc(F)cc3)CC2)CC[C@]1(C(=O)O)c1ccccc1 (some centres not stated) ?
Given back: False

Asked: Then what about the compound "NCc1cccnc1" ?
Given back: False

Asked: Then what about the compound "CCS(=O)(=O)C(C)(C)S(=O)(=O)CC" ?
Given back: False

Where do these numbers come from? They come from PubChem BioAssay (NCATS).
